- assay: E. coli DRC41 culture turbidity changes, primary screen, E. coli filamentation inducer project, strain DRC41, OD650, 48 h (AID 1152);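 note: E. coli MC1000 strain DRC41 lacking acrAB efflux pump and sulA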
- condition_details: E. coli DRC41 (acrAB sulA), higher = more signal, called active from +8 up or from −8 down
metric: z-score

[[record]]
molecule = "COC(=O)[C@@]1(Cc2ccc(F)cc2)[C@H]2c3cc(C(=O)N4CCCC4)n(Cc4cccc5ccccc45)c3C[C@H]2CN1C(=O)c1ccccc1"
experimental_value = -2.25

[[record]]
molecule = "O=C1OCC=C[C@H]2OC34C=CCN(c5ccc6ccccc6c5)C(=O)[C@H]3N(CCCO)C(=O)[C@@H]4[C@@H]12 (some centres not stated)"
experimental_value = 0.392

[[record]]
molecule = "COC(=O)[C@@]1(Cc2ccccc2)[C@H]2c3cc(C(=O)N4CCCC4)n(C)c3C[C@H]2CN1C(=O)c1ccccc1"
experimental_value = -0.308

[[record]]
molecule = "[N-]=[N+]=NCc1ccccc1C[C@@]1(C(=O)NCC(O)CO)N=C(c2ccc(OCCCO)cc2)O[C@@H]1c1ccccc1CN=[N+]=[N-] (some centres not stated)"
experimental_value = 0.19

[[record]]
molecule = "CCCCC=C[C@@H](NC(=O)c1ccco1)c1ccccc1"
experimental_value = -1.24

[[record]]
molecule = "CS(=O)(=O)CCOC(=O)C1=CC(CCCO)=CC(c2cccs2)N(Cc2cc3c(cc2Br)OCO3)C=C1C(=O)OCCS(C)(=O)=O (configuration not stated)"
experimental_value = 0.702

[[record]]
molecule = "O=C1O[C@H](c2ccccc2)[C@H](c2ccccc2)N2[C@H]1[C@@H](C(=O)NC[C@H](O)c1ccccc1)[C@]1(C(=O)Nc3ccc(C#CCCO)cc31)[C@H]2c1ccc(O)cc1"
experimental_value = 0.39


The reported measurements were obtained from PubChem BioAssay.
